# Target entity: human plasma kallikrein (human, UniProt P03952 20-390; P03952 391-638)
# Sequence (P03952 20-390, chain 1 of 2): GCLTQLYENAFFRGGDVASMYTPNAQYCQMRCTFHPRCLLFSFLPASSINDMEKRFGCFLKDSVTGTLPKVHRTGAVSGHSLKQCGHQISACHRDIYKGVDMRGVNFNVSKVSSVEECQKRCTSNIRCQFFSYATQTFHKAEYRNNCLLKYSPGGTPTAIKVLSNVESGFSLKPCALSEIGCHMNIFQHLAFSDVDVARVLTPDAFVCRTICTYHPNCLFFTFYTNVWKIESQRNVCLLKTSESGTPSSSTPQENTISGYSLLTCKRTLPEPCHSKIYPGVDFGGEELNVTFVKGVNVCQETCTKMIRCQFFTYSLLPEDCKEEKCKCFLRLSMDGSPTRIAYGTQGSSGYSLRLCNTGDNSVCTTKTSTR
# Sequence (P03952 391-638, chain 2 of 2): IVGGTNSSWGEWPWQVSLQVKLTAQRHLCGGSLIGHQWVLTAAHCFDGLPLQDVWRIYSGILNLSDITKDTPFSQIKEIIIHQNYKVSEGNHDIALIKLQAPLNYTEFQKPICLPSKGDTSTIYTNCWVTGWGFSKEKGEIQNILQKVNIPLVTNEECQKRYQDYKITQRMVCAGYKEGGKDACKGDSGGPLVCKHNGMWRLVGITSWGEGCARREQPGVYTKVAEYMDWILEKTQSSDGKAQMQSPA
# Assay procedure: cell-based or functional assay

Binder	% inhibition at 10 nM [%]
M207-C05 (Fab, V domains shown) VH: EVQLLESGGGLVQPGGSLRLSCAASGFTFSHYLMTWVRQAPGKGLEWVSYISPSGGHTIYADSVKGRFTISRDNSKNTLYLQMNSLRAEDTAVYYCARVGRGIAARSRTSYFDKWGQGTLVTVSS VL: DIQMTQSPGTLSLSPGERATLSCRTSQFVNSNYLAWYQQTPGQAPRLLIYGASSRATGIPDRFSGTGYGTDFTLTISRLEPEDYGTYYCQQSSRTPWTFGQGTRVEIK	61.4
M208-G03 (Fab, V domains shown, Tested as Fab; printed HC runs into CH1) VH: EVQLLESGGGLVQPGGSLRLSCAASGFTFSHYLMTWVRQAPGKGLEWVSYISPSGGHTIYADSVKGRFTISRDNSKNTLYLQMNSLRAEDTAVYYCARVARGIAARSRTSYLDYWGQGTLVTVSS VL: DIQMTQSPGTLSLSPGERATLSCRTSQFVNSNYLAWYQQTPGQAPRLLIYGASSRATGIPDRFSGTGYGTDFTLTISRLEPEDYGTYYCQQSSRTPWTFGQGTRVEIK	93.4
M205-H01 (Fab, V domains shown) VH: EVQLLESGGGLVQPGGSLRLSCAASGFTFSNYTMQWVRQAPGKGLQWVSYISPSGGYTGYADSVKGRFTISRDNSKNTLYLQMNSLRAEDTAVYYCARVARGIAARSRTSYFDYWGQGTLVTVSS VL: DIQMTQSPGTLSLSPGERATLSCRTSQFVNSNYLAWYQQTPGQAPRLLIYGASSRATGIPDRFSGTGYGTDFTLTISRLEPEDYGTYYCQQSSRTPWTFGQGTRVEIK	77.1
